Biological target: mouse Tas2r105 (Mus musculus, UniProt Q9JKT4)
Construct: expressed in transfected cells; host or cells: HEK293T-Gα16gust44
Sequence (Q9JKT4 whole entry): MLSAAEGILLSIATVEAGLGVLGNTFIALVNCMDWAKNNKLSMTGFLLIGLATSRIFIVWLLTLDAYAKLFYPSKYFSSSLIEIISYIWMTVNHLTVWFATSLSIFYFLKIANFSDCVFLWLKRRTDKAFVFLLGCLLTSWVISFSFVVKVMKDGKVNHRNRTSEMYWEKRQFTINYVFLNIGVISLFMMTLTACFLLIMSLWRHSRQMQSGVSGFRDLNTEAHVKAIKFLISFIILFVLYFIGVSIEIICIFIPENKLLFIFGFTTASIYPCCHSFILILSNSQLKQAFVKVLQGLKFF
Assay: Calcium imaging assay (FLIPR), HEK293T-Gα16gust44 cells transfected with mouse Tas2r105
Type: cell-based
Settings: Time 134.781 s
observable: RLU (RLU)
Give a bare numeral; the unit RLU is implied.

C[C@H](CCC(=O)O)[C@H]1CC[C@H]2[C@@H]3CC[C@@H]4C[C@H](O)CC[C@]4(C)[C@H]3CC[C@]12C [Lithocholic Acid, lithocholic acid]; 282.326
C[C@H](CCC(=O)O)[C@H]1CC[C@H]2[C@@H]3[C@H](O)C[C@@H]4C[C@H](O)CC[C@]4(C)[C@H]3C[C@H](O)[C@]12C [Cholic Acid, cholic acid]; 533.269
C[C@H](CCC(=O)O)[C@H]1CC[C@H]2[C@@H]3CC[C@@H]4C[C@H](O)CC[C@]4(C)[C@H]3C[C@H](O)[C@]12C [Deoxycholic Acid, deoxycholic acid]; 177.913

Any idea what RLU was measured for C[C@H](CCC(=O)NCC(=O)O)[C@H]1CC[C@H]2[C@@H]3[C@H](O)C[C@@H]4C[C@H](O)CC[C@]4(C)[C@H]3C[C@H](O)[C@]12C [Glycocholic Acid, glycocholic acid] ?
551.693
